test system: PC-3 prostate cancer cells (PSMA-negative); assay: Cell viability assay (MTT), dark and blue light; format: cell-based, Human; conditions: PC3, dark
Reported SI (vs NIH-3T3) values follow for various compounds
readout.label: SI (vs NIH-3T3)

{"compound": "F[P-](F)(F)(F)(F)F.O=C(NCCCn1cc[n+]2[c]1[Ir-3]13([c]4cccc5ccc6ccc[n+]1c6c45)([c]1cccc4ccc5ccc[n+]3c5c14)[n+]1ccccc1-2)[c-]1cccc1.[Fe+2].c1cc[cH-]c1 [IV-i]", "readout.label": "SI (vs NIH-3T3)", "numeric.readout": 7.0}
{"compound": "F[P-](F)(F)(F)(F)F.O=C(NCCCn1cc[n+]2[c]1[Ir-3]13([c]4ccccc4-c4sc5ccccc5[n+]41)([c]1ccccc1-c1sc4ccccc4[n+]13)[n+]1ccccc1-2)[c-]1cccc1.[Fe+2].c1cc[cH-]c1 [IV-k]", "readout.label": "SI (vs NIH-3T3)", "numeric.readout": 17.3}
{"compound": "F[P-](F)(F)(F)(F)F.O=C(NCCCn1cc[n+]2[c]1[Ir-3]13([c]4cc(F)cc(F)c4-c4cccc[n+]41)([c]1cc(F)cc(F)c1-c1cccc[n+]13)[n+]1ccccc1-2)[c-]1cccc1.[Fe+2].c1cc[cH-]c1 [IV-l]", "readout.label": "SI (vs NIH-3T3)", "numeric.readout": 4.8}
{"compound": "COC(=O)c1cccc2[c]1[Ir-3]13([c]4c(C(=O)OC)cccc4-c4cccc[n+]41)([c]1n(CCCNC(=O)[c-]4cccc4)cc[n+]1-c1cccc[n+]13)[n+]1ccccc1-2.F[P-](F)(F)(F)(F)F.[Fe+2].c1cc[cH-]c1 [IV-d]", "readout.label": "SI (vs NIH-3T3)", "numeric.readout": 1.3}
{"compound": "COC(=O)c1ccc2[c](c1)[Ir-3]13([c]4cc(C(=O)OC)ccc4-c4cccc[n+]41)([c]1n(CCCNC(=O)[c-]4cccc4)cc[n+]1-c1cccc[n+]13)[n+]1ccccc1-2.F[P-](F)(F)(F)(F)F.[Fe+2].c1cc[cH-]c1 [IV-c]", "readout.label": "SI (vs NIH-3T3)", "numeric.readout": 2.2}
{"compound": "F[P-](F)(F)(F)(F)F.O=C(NCCCn1cc[n+]2[c]1[Ir-3]13([c]4ccccc4-c4cccc[n+]41)([c]1ccccc1-c1cccc[n+]13)[n+]1ccccc1-2)[c-]1cccc1.[Fe+2].c1cc[cH-]c1 [IV-a]", "readout.label": "SI (vs NIH-3T3)", "numeric.readout": 9.9}
{"compound": "F[P-](F)(F)(F)(F)F.O=C(NCCCn1cc[n+]2[c]1[Ir-3]13([c]4ccccc4-c4ccc5ccccc5[n+]41)([c]1ccccc1-c1ccc4ccccc4[n+]13)[n+]1ccccc1-2)[c-]1cccc1.[Fe+2].c1cc[cH-]c1 [IV-g]", "readout.label": "SI (vs NIH-3T3)", "numeric.readout": 7.9}
{"compound": "F[P-](F)(F)(F)(F)F.O=C(NCCCn1cc[n+]2[c]1[Ir-3]13([c]4ccccc4-c4c5ccccc5cc[n+]41)([c]1ccccc1-c1c4ccccc4cc[n+]13)[n+]1ccccc1-2)[c-]1cccc1.[Fe+2].c1cc[cH-]c1 [IV-h]", "readout.label": "SI (vs NIH-3T3)", "numeric.readout": 10.2}
{"compound": "Cc1ccc2[c](c1)[Ir-3]13([c]4cc(C)ccc4-c4cccc[n+]41)([c]1n(CCCNC(=O)[c-]4cccc4)cc[n+]1-c1cccc[n+]13)[n+]1ccccc1-2.F[P-](F)(F)(F)(F)F.[Fe+2].c1cc[cH-]c1 [IV-b]", "readout.label": "SI (vs NIH-3T3)", "numeric.readout": 16.4}
